- Test system: MS2 coat protein
- assay-remarks: apparent KD of MS2 coat protein; designed switch direction (-1 OFF switch, 1 ON switch): 1; higher = weaker reporter binding
- conditions: input ligand: none
quantity-name: apparent KD of MS2 coat protein (nM)
Respond numerically; units are nM and should not be typed.

Check out these entries, answers already filled in.
# sequence-content, system-under-test, apparent KD of MS2 coat protein, nM
measured = [
    ("GUUACAUGAGGAUCACCCAUGUAUGUGUGGGAGUAAGUGUCUUAGGAUAUCUAUUAUUUAAUUUUAGAGAAGGAAGAUUGUUGU [JMF's solution 27] (Eterna round: R96, puzzle: Same State NG 3)", "MS2 coat protein", 120),
    ("CCGGUAAAUGGAGGAUAUGGAGCCUUAUUGGCUCCAGAAGGCUAACAUGAGGAUCACCCAUGUAUACCGGCGGUCAAUAGACCG [Eli NG1ss - 64] (Eterna round: R96, puzzle: Same State NG 1)", "MS2 coat protein", 21.8),
    ("GGUAAGAAUUAAGGAUAUCGAGUACAUAUGUUUAACAUGAGGAUCACCCAUGUGGGUUGCGGUAUCGAGAAGGUAAAUUAUAAG [Mat - same State NG 2 - JL mod - D63] (Eterna round: R96, puzzle: Same State NG 2)", "MS2 coat protein", 50.8),
]

Would you kindly look at the next entry?
apparent KD of MS2 coat protein recorded for this sequence, AUUUUUGAUGCAGGAUAUGAUUAACAUGAGGAUCACCCAUGUGGUGUUGUGAGUAAGGAGAGUGAUCAGAAGGGCAUUUUUUUU [JMF's solution 93] (Eterna round: R96, puzzle: Same State NG 2) , is 365

* * *

- System: K4 kissing-loop RNA reporter;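 note: bound reporter read as fluorescence of individual clusters on recovered sequencing chips by microscopy, with normalized cluster intensities fitted with a binding model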
- assay-remarks: apparent KD of K4 kissing-loop reporter; higher = weaker reporter binding
- conditions: Eterna round: R107; input ligand: theophylline 20 uM
quantity-name: apparent KD of K4 kissing-loop reporter
Give the value; after it, write the unit.

# sequence-content, system-under-test, apparent KD of K4 kissing-loop reporter
data = [
    ("ACAUGACGUGCGCCCGUCAUGAAACGUGCAAAGGAUAUUCCGUUUUGAAGAAGGUUGCGGUAGUGUAGUGAUGUUGCUCCGCCGU [theeternabot_sameState_KL_FMN_A_11]", "K4 kissing-loop RNA reporter", "315 nM"),
    ("ACACUAUCGUCAUAGACGGUAGUGAAAGCUGAGGAUAUGAGUGAUGUUAGAAGGUAGCAAGACUGUAUCGAAUAGAUACAGUCAA [FmnA 5 #K4BetweenAptamer #OpenEnded]", "K4 kissing-loop RNA reporter", "162 nM"),
]

# apparent KD of K4 kissing-loop reporter of UCGCAUUAACCGGAUACCAGCUUAGUGGGAUCUUCAAUCCGACAGAAAGUGAUGUUUUCUAGCCCUUGGCAGCCGAGAUUAUCAC [theeternabot_sameState_KL_Theo_B_50] = 412 nM

The value of apparent KD of K4 kissing-loop reporter measured for the sequence UAGUGUCGCGCAGGAUAUACUGAUUGGAGUGAUGUUCCAAACAUGCACGUGUGACUUUUACAAGAAGUAGAAGGGCGUGAGACAU [Exclusion FMN B GF 22] turned out to be 198 nM

AUUUUGGUUGAGAGUGAUGUUCCUUGUGUUCGAGGACCGGUACGGCCGCCACUCGGGUAGAAAAUAAAAGAAAUGUUUGAUUUUU [BDazzled - #11 SS Tryptophan A] yielded apparent KD of K4 kissing-loop reporter of 143 nM
